- Tested on: Mus musculus
- assay_name: Anticonvulsant activity in albino CF1 mouse assessed as protection against subcutaneous metrazole-induced seizures at 300 mg/kg, ip after 0.5 hrs
- Format: functional, organism-based
- Design: dose 300 mg/kg
Activity calls are given as the source filed them. The calls are words filed in the database; no cut-off is given here.
Bench note: report the call from active, inactive

O=[N+]([O-])c1cccc(-c2c[nH]c(-c3ccccc3)n2)c1 inactive
O=[N+]([O-])c1cccc(-c2nc(-c3ccccc3)c[nH]2)c1 inactive
COc1ccc(-c2nc(-c3ccccc3)c[nH]2)cc1 active
FC(F)(F)c1ccc(-c2nc(-c3ccccc3)c[nH]2)cc1 inactive
FC(F)(F)c1cccc(-c2c[nH]c(-c3ccccc3)n2)c1 inactive

Outcome logged for Clc1ccc(-c2nc(-c3ccccc3)c[nH]2)cc1 in this assay:
inactive

Outcome logged for FC(F)(F)c1cccc(-c2c[nH]c(-c3ccc(Cl)cc3)n2)c1 in this assay:
inactive

Outcome logged for Clc1cccc(-c2nc(-c3ccccc3)c[nH]2)c1 in this assay:
active

Outcome logged for FC(F)(F)c1cccc(-c2nc(-c3ccccc3)c[nH]2)c1 in this assay:
inactive

Outcome logged for COc1cccc(-c2c[nH]c(-c3ccccc3)n2)c1 in this assay:
inactive

Outcome logged for O=[N+]([O-])c1ccc(-c2nc(-c3ccccc3)c[nH]2)cc1 in this assay:
inactive

Outcome logged for FC(F)(F)c1cccc(-c2c[nH]c(-c3cccc(C(F)(F)F)c3)n2)c1 in this assay:
inactive

* * *

- System: Rattus norvegicus
- assay_name: Neurotoxicity in albino Sprague-Dawley rat assessed as minimal motor impairment at 30 mg/kg, po by rotarod test
- Type: toxicity, organism-based
- Design: dose 30 mg/kg, route oral
- conditions_used: in vivo
property_name: Activity

Sample records with Activity:
COc1ccc(-c2c[nH]c(-c3ccccc3)n2)cc1 Non-toxic
c1ccc(-c2c[nH]c(-c3cccnc3)n2)cc1 Non-toxic
c1ccc(-c2c[nH]c(-c3ccccc3)n2)cc1 Non-toxic
Clc1cccc(-c2c[nH]c(-c3ccccc3)n2)c1 Non-toxic
Clc1ccc(-c2c[nH]c(-c3ccccc3)n2)cc1 Non-toxic
FC(F)(F)c1ccc(-c2nc(-c3ccccc3)c[nH]2)cc1 Non-toxic

I'm hoping you can list Activity for every compound here, please.
1. COc1cccc(-c2c[nH]c(-c3ccccc3)n2)c1
2. COc1ccc(-c2nc(-c3ccccc3)c[nH]2)cc1
3. O=[N+]([O-])c1cccc(-c2nc(-c3ccccc3)c[nH]2)c1
4. O=[N+]([O-])c1cccc(-c2c[nH]c(-c3ccccc3)n2)c1

Non-toxic
Non-toxic
Non-toxic
Non-toxic

* * *

- Tested on: Mus musculus
- assay_name: Anticonvulsant activity in albino CF1 mouse assessed as protection against maximal electroshock-induced seizures at 30 mg/kg, ip after 4 hrs
- Assay type: functional, organism-based
- Parameters: dose 30 mg/kg
Active and inactive are the calls of the source. The rule behind the calls is not given here.
property_name: Activity

O=[N+]([O-])c1ccc(-c2c[nH]c(-c3ccccc3)n2)cc1 inactive
Clc1ccc(-c2c[nH]c(-c3ccccc3)n2)cc1 inactive
c1ccc(-c2c[nH]c(-c3cccnc3)n2)cc1 inactive

* * *

- Test system: Mus musculus
- assay_name: Anticonvulsant activity ip dosed albino CF1 mouse assessed as protection against maximal electroshock-induced seizures after 0.25 hrs
- Type: functional
property_name: ED50 (mg/kg)
Give bare numbers, in mg/kg.

Sample records with ED50:
COc1ccc(-c2nc(-c3ccccc3)c[nH]2)cc1 46.8
Clc1cccc(-c2c[nH]c(-c3ccccc3)n2)c1 137
c1ccc(-c2c[nH]c(-c3ccccc3)n2)cc1 61.7

Next compound, please.
What value of ED50 has been recorded for this entry: FC(F)(F)c1ccc(-c2nc(-c3ccccc3)c[nH]2)cc1
130
